# Test system: HOP-92
# method notes: NCI tumour cell line growth inhibition, 48 h
The source made the active and inactive calls. Cut-off read from the data, not from the text of the source: active = GI50 up to about 1.1 µM and inactive = higher.
I'd appreciate it if you could supply GI50 values for the items below.

CCOC(=O)C1C=C2O[C@@H]3OC4(CCCCC4)O[C@@H]3C2C2C(=O)CCC(=O)[C@@]12C(=O)OC (stereo partly specified): > 100 µM (inactive)
COc1cc(OC)c2c(O)cc(CC(C)O)cc2c1 (stereo unspecified): > 100 µM (inactive)
Cc1ccc(C)c(NC(=O)/C(=N\NC(N)=S)C(C#N)c2ccccc2)c1 (stereo unspecified): > 100 µM (inactive)
Cc1ccc(S(=O)OC2C3CC4CC(C3)CC2C4)cc1 (stereo unspecified): > 100 µM (inactive)
N=C(N)N/N=C/c1c(-c2ccc(Cl)cc2)nc2n1CCS2: 10.7 µM (inactive)

List GI50 for every entry below, keeping the order given.
1. Nc1ccn(CCNCCn2cnc3nc(N)[nH]c(=O)c32)c(=O)n1
2. CCOC(=O)CO/N=C1/C(=C2/C(=O)Nc3ccccc32)Nc2ccccc21
3. Cc1ccc2nnc(NS(=O)(=O)c3cc(C)c(Cl)cc3S)n2n1

(A)
> 100 µM (inactive)
16.9 µM (inactive)
> 100 µM (inactive)

----------
# Test system: NCI-H226
# method notes: NCI tumour cell line growth inhibition, 48 h
Active and inactive are the calls of the source. Rule as the data show it: active = GI50 up to about 1.1 µM and inactive = higher.
A correct response names exactly one class from True (active), False (inactive)

Recorded results for 3 molecules are shown here.
COC(=O)C1OC(SCCN)C(O)C(O)C1O (stereo not given): False
CN1CCN(C(=S)N(C(=O)c2ccco2)C2CCCCC2)CC1: False
O=C(c1ccccc1)c1c(CC(O)c2ccncc2)n(C(=O)c2ccccc2)c2ccccc12 (stereo not given): False

(Q) # outcome recorded in this test, key = COC1/C=C/C(C)C(C(C)C(OC)C(C)CCC(=O)C(C)C(CCC(=O)O)OC)OC(=O)/C=C/C=C(\C)CC(OC)CC2=CC(=O)O[C@@H](C(C)C(OC)CC(OC)/C=C/C(C)C(OC)C1)[C@H]2O (stereo not given in full)
(A) True

(Q) # outcome recorded in this test, key = COC(=O)c1ccc2c(c1)CC1(C2)Cc2ccccc2C1=O (stereo not given)
(A) False

----------
# System: RXF 393
# method notes: NCI tumour cell line growth inhibition, 48 h
Calls of active or inactive are those of the source. No stated cut-off is given here; in the data, active = GI50 up to about 1.1 µM and inactive = higher.
A correct response names exactly one class from label 1 for active, label 0 for inactive

Recorded results for 2 compounds are shown here.
C/C(=N\Nc1ccc2ccccc2n1)c1ccccc1O: label 0
CCNc1nc2c(=O)n(C)c(=O)n(C)c2s1: label 0

(Q) # outcome recorded in this test, key = O=C1c2ccccc2-c2nnc3c(c21)Cc1ccccc1C3
(A) label 0

(Q) # outcome recorded in this test, key = C=CCn1c(-c2ccccc2)cs/c1=N\C(P(=O)(O)O)P(=O)(O)O
(A) label 0

(Q) # outcome recorded in this test, key = COc1ccc2c(c1)C(=O)C(=O)c1cc(O)c(OC)c(OC)c1-2
(A) label 1

(Q) # outcome recorded in this test, key = c1ccc2c(c1)nc1n2CNCC1
(A) label 0

----------
# System: HT-29
# method notes: NCI tumour cell line growth inhibition, 48 h
Active and inactive are the calls of the source. No stated cut-off is given here; in the data, active = GI50 up to about 1.1 µM and inactive = higher.
A correct response names exactly one class from active, inactive

O=C(CCC(=O)Nc1ccc(Cl)c(Cl)c1)CC(=O)c1ccc2ccccc2c1: inactive
Nc1nc(Cl)cc(NCCO)n1: inactive
NC1=NC(=O)C(CC(=O)Nc2ccc(Cl)cc2Cl)S1 (stereo not given): inactive
Cc1c(Cl)ccc2c1NC(=O)C2(O)CC(=O)c1ccc2ccccc2c1 (stereo not given): inactive
CC1=C2N3C[C@@H](n4c(=O)n(C)c(=O)n43)C23CCC1n1c(=O)n(C)c(=O)n13: inactive

(Q) # outcome recorded in this test, key = COc1ccc2c(c1OC)C(=O)c1cnccc1C2=O
(A) inactive

----------
I'd appreciate it if you could supply GI50 values for the items below.
# Tested on: SK-OV-3
# method notes: NCI tumour cell line growth inhibition, 48 h
Calls of active or inactive are those of the source. No stated cut-off is given here; in the data, active = GI50 up to about 1.1 µM and inactive = higher.

Recorded results for 3 compounds are shown here.
COc1ccc2[nH]c3c([N+](=O)[O-])ccc(NCCN(C)C)c3/c(=N/CCN(C)C)c2c1: 2.85 µM (inactive)
C=CC(=O)N1C/C(=C\c2ccc(Cl)c(Cl)c2)C(=O)/C(=C/c2ccc(Cl)c(Cl)c2)C1: 0.378 µM (active)
CCOC(=O)/C=C/CCO[Si](C)(C)C(C)(C)C: > 100 µM (inactive)

List GI50 for every entry below, keeping the order given.
1. CN1C(=O)C(=CNc2ccccc2Cl)C(=O)N(C)C1=O
2. CCCCc1ccc(Nc2nc3ncnc-3c[nH]2)cc1
3. O=C(N/N=C\c1ccc([N+](=O)[O-])cc1)Nc1ccccc1
4. Cc1cc(O)c2c(c1)C(=O)C=C(Br)C2=O

(A)
1: 40.8 µM (inactive); 2: 18.4 µM (inactive); 3: > 100 µM (inactive); 4: > 100 µM (inactive)

----------
# Test system: HCC 2998
# method notes: NCI tumour cell line growth inhibition, 48 h
Activity calls are given as the source filed them. Rule as the data show it: active = GI50 up to about 1.1 µM and inactive = higher.
A correct response names exactly one class from true = active, false = inactive

CC(C)(C)C(C#N)(C#N)c1ccc(C(C#N)(C#N)C(C)(C)C)nn1: false
COc1cccc(C2ON=C(c3ccccc3)N2C23CC4CC(CC(C4)C2)C3)c1 (stereo not given): false
Cc1cn(C2CC(O)C(Cn3nncc3Cn3cnc4c(N)ncnc43)O2)c(=O)[nH]c1=O (stereo not given): false
CCOC(=O)c1c2cccccc-2nc1Nc1cccc2c(C)ccnc12: false
COC(=O)Nc1nc(=O)c2cc(OC)c(OC)cc2[nH]1: false
CCCCCCCCCCCCC/C=C/[C@@H](O)[C@H](COC1OC(CO)C(OC2OC(CO)C(O)C(OC3(C(=O)O)CC(O)C(NC(C)=O)C(C(O)C(O)CO)O3)C2O)C(O)C1O)N=[N+]=[N-] (stereo not given in full): false
CCN(CCCl)c1cc(CN(C)C)cc(NC(=O)c2ccc(C(=O)Nc3cccc(CN(C)C)c3)cc2)c1: false
COc1ccc2c(c1)C(=O)C(=O)c1cc(O)c(OC)c(OC)c1-2: false
C[C@]12CCc3nonc3C1CC[C@@H]1C2CC[C@]2(C)C(=O)CCC12 (stereo not given in full): false
COc1ccc2c(=O)c(-c3cc4c(cc3OC)OCO4)coc2c1: false

(Q) # outcome recorded in this test, key = Cc1ccnc2nc(-c3ccc(F)cc3)cc(O)c12
(A) false

(Q) # outcome recorded in this test, key = C[C@@]12C(=O)OC(=O)[C@]1(C)[C@H]1CC[C@@H]2O1
(A) false

(Q) # outcome recorded in this test, key = C=CC/C=C/Cc1csc(C(C)(C)C(O)C/C=C/C(=C)CCNC(=O)OC)n1 (stereo not given)
(A) false

(Q) # outcome recorded in this test, key = CN/N=C(\C(=O)Nc1ccc([N+](=O)[O-])cc1[N+](=O)[O-])C1NC(=O)NC1=O (stereo not given)
(A) false

(Q) # outcome recorded in this test, key = COc1ccc(/C=N/NC(=O)c2sc(=S)n(-c3ccccc3)c2N)cc1
(A) false

(Q) # outcome recorded in this test, key = O=C(CCc1nnc(S)[nH]1)Nc1cc(Cl)c(Cl)cc1Cl
(A) false

----------
# System: LXFL 529
# method notes: NCI tumour cell line growth inhibition, 48 h
Where a name gives a salt, the structure may show the parent alone. Active and inactive are the calls of the source. Cut-off read from the data, not from the text of the source: active = GI50 up to about 1.1 µM and inactive = higher.
readout label: GI50

CC[C@@]1(O)C(=O)OCc2c1cc1n(c2=O)Cc2cc3c(CN(C)C)c(O)ccc3nc2-1 [TOPOTECAN HYDROCHLORIDE]: 2.29 µM (inactive)
C=C1C=CC2(Br)OC3CC(C)(Cl)C(Br)CC13C2(C)C (stereo not given): 22.5 µM (inactive)
C=CC/C=C/Cc1csc(C(C)(C)C(O)C/C=C/C(=C)CCNC(=O)OC)n1 (stereo not given): 21.2 µM (inactive)
COC(=O)C(=O)C(C(=O)C(=O)Nc1ccc([N+](=O)[O-])cc1[N+](=O)[O-])c1nc2ccc([N+](=O)[O-])cc2nc1O (stereo not given): > 100 µM (inactive)

List GI50 for every entry below, keeping the order given.
1. O=C(CC(C(=O)c1ccsc1)c1cccs1)c1cccs1 (stereo not given)
2. NC1=NC(=O)C(CC(=O)Nc2ccc(Cl)cc2Cl)S1 (stereo not given)
3. CC1=CC(=O)N(c2c(C)cccc2Cl)C(C)N1 (stereo not given)
4. C[C@]12CCc3nonc3C1CC[C@@H]1C2CC[C@]2(C)C(=O)CCC12 (stereo not given in full)
5. COc1ccccc1NC(=O)CC(=O)N/N=C/c1ccc(N(CCC#N)S(=O)(=O)c2ccccc2)cc1
6. CCNc1nc2c(=O)n(C)c(=O)n(C)c2s1

(A)
38.5 µM (inactive)
> 100 µM (inactive)
> 100 µM (inactive)
35.9 µM (inactive)
> 100 µM (inactive)
> 100 µM (inactive)
